- Test system: BT20 Cell
- assay name: Cancer Cell Lysate Total L-Glutamate Assay
- Type: cell-based
- details: Homo sapiens, BT-20, 2 h, total L-glutamate in cell lysate, BT20 cells, 2 hour incubation with test compound
pIC50: −log10 of the molar value.
endpoint label: pIC50

a: CCC(=O)Nc1ccc(C[C@H]2CC[C@@H](c3nnc(NC(=O)Cc4ccn(C)n4)s3)C2)nn1 (single isomer, unassigned)
b: CC(=O)Nc1nnc(C2CCC(Cc3nnc(NC(=O)Cc4ccccc4)s3)C2)s1 (racemic)
c: Cn1ccc(CC(=O)Nc2nnc(C3CC4(C3)CC(c3nnc(NC(=O)Cc5ccn(C)n5)s3)C4)s2)n1 (racemic)
d: CCNc1nnc([C@@H]2CC[C@H](Cc3ccc(NC(=O)Cc4ccccn4)nn3)C2)s1 (single isomer, unassigned)
-- ask Arrange the items listed above so that pIC50 rises from first to last. Write out the labels following the order that was asked for.
-- reply d, b, a, c
(d: 6.47, b: 7.97, a: 8.82, c: 9.52)
